# Ki listing for each entry below
target: pyruvate dehydrogenase complex (PDHC); construct: native mitochondrial complex isolated from porcine heart; with PDHB (E1 beta) and the other subunits of the complex; test: spectrophotometric PDHC kinetics at […] nm, Lineweaver-Burk, Ki from the shift of Km for TPP; conditions: read-out: Kinetic parameters / Ki
assay-metric: Ki (µM)

{"columns": ["compound", "tgt", "result-number"],
 "data": [
  ["Cc1ncc(Cc2csc(CCOP(=O)(O)OP(=O)(O)O)c2C)c(N)n1 [compound 15, 3-deazathiamine pyrophosphate]", "pyruvate dehydrogenase complex (PDHC)", 0.0026],
  ["Cc1ncc(C[n+]2csc(CCOP(=O)(O)OP(=O)(O)O)c2C)c(O)n1 [compound 18, oxythiamine pyrophosphate]", "pyruvate dehydrogenase complex (PDHC)", 0.025]
]}
